B1: TRAF3IP2 (parent)
chain: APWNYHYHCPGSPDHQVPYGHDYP

Variants of: B1
protocol summary: protein stability index of a GFP-peptide fusion (GPS, HEK-293T) (PSI 1-6); higher = more stable;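 also: lentivirally expressed fusions sorted by FACS into six bins by GFP to DsRed ratio, PSI derived from sequencing read proportions per bin multiplied by bin number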
condition info: c terminus: a fixed tail appended
Grouping key: protein stability index. Bins: low (below 2), intermediate (2 to below 3), high (3 or more)

{"columns": ["mutant label", "class assignment"],
 "data": [
  ["H21C", "low"],
  ["H21Y", "intermediate"],
  ["Y7D", "high"],
  ["G11Y", "low"],
  ["P13H", "low"],
  ["S12F", "low"],
  ["D22N", "low"],
  ["Y19I", "intermediate"],
  ["H21E", "intermediate"],
  ["H6W", "intermediate"],
  ["G20K", "intermediate"],
  ["C9W", "low"],
  ["W3N", "high"],
  ["H8W", "intermediate"],
  ["H6D", "high"],
  ["H15Q", "intermediate"],
  ["W3I", "high"],
  ["Y7I", "intermediate"],
  ["A1I", "low"],
  ["P18Q", "intermediate"],
  ["Y19M", "intermediate"],
  ["Y7T", "intermediate"],
  ["A1T", "low"],
  ["C9K", "intermediate"],
  ["G11A", "intermediate"],
  ["D14R", "low"],
  ["A1D", "high"],
  ["H21D", "intermediate"],
  ["Y7S", "intermediate"],
  ["G11Q", "low"],
  ["V17W", "intermediate"],
  ["Y7L", "intermediate"],
  ["V17T", "intermediate"],
  ["Y7M", "low"],
  ["Y7P", "high"],
  ["C9H", "intermediate"],
  ["H8D", "intermediate"],
  ["Y5D", "high"],
  ["S12K", "intermediate"],
  ["C9M", "intermediate"]
]}
